Below: a set of entries, each annotated with reported pEC50.
Test system: Thoracic aorta
assay-procedure: Vasorelaxing activity in Wistar rat endothelium-denuded thoracic aorta ring assessed as reduction in 30 mM KCl-induced contraction after 15 mins in presence of 1 uM glibenclamide
Type: functional, tissue-based
condition-summary: 0.25 h, in the assay text read “endothelium-intact” for “endothelium-denuded”
Quick note: pEC50 values are minus log10 of concentrations in mol/L.

These solved cases illustrate the format of a correct answer.
compound: Cc1ccc(OCc2ccccc2)c(C(C)NC(=O)NS(=O)(=O)c2ccc(Cl)cc2)c1 (racemic)
pEC50: 4.04

compound: CC(NC(=O)NS(=O)(=O)c1ccc(Cl)cc1)c1cc(Br)ccc1OCc1ccccc1 (racemic)
pEC50: 4.11

compound: COc1ccc(Cl)cc1C(C)NC(=O)N(C)S(=O)(=O)c1ccccc1 (racemic)
pEC50: 5.17

compound: COc1ccc(CCN(C)CCCC(C#N)(c2ccc(OC)c(OC)c2)C(C)C)cc1OC (stereo not given)
pEC50: 7.15

Okay, next one:
Lookup: State the recorded pEC50 for this entry: CC1(C)Oc2ccc(C#N)cc2[C@H](N2CCCC2=O)[C@H]1O [(-)-CROMAKALIM]
Found: 5.47

* * *

System: Trachea/thoracic aorta
assay-procedure: Ratio of EC50 for Wistar rat trachea tonus to EC50 for Wistar rat endothelium-denuded thoracic aorta ring
Type: functional
condition-summary: in the assay text read “endothelium-intact” for “endothelium-denuded”
Binary classification by Ratio EC50, with 0.9 as an inclusive lower bound for Criterion met; all other cases are Criterion not met.

molecule: CC(NC(=O)NS(=O)(=O)c1ccc(Cl)cc1)c1cc(Br)ccc1OCc1ccccc1 (racemic)
target-of-assay: Trachea/thoracic aorta
group: Criterion not met

Lookup: # check: Ratio EC50 of COc1ccc(Br)cc1C(C)NC(=O)N(C)S(=O)(=O)c1ccc(C)cc1 (stereo not given) is greater than or equal to 0.9
Found: Criterion not met

Lookup: And COc1ccc(Br)cc1C(C)NC(=O)N(C)S(=O)(=O)c1ccc(Cl)cc1 (racemic) ?
Found: Criterion met

Lookup: And CC1(C)Oc2ccc(C#N)cc2[C@H](N2CCCC2=O)[C@H]1O [(-)-CROMAKALIM] ?
Found: Criterion met

Lookup: And CCOc1ccc(Br)cc1C(C)NC(=O)N(C)S(=O)(=O)c1ccccc1 (racemic) ?
Found: Criterion not met

Lookup: And COc1ccc(Br)cc1C(C)NC(=O)N(C)S(=O)(=O)c1ccccc1 (racemic) ?
Found: Criterion not met

Lookup: And COc1ccc(Cl)cc1C(C)NC(=O)N(C)S(=O)(=O)c1ccccc1 (racemic) ?
Found: Criterion not met

Lookup: And Cc1ccc(OCc2ccccc2)c(C(C)NC(=O)NS(=O)(=O)c2ccc(Cl)cc2)c1 (racemic) ?
Found: Criterion not met

Lookup: And COc1ccc(CCN(C)CCCC(C#N)(c2ccc(OC)c(OC)c2)C(C)C)cc1OC (stereo not given) [VERAPAMIL] ?
Found: Criterion met

* * *

System: Thoracic aorta
assay-procedure: Vasorelaxing activity in Wistar rat endothelium-denuded thoracic aorta ring assessed as reduction in 80 mM KCl-induced contraction after 15 mins
Format: functional, tissue-based
condition-summary: 0.25 h, in the assay text read “endothelium-intact” for “endothelium-denuded”
Rule: measured EC50 below 5 µM gets YES; anything equal to or greater than 5 µM gets NO.

// below: answered compounds
compound: COc1ccc(Cl)cc1C(C)NC(=O)N(C)S(=O)(=O)c1ccccc1 (racemic)
group: NO

compound: CC1(C)Oc2ccc(C#N)cc2[C@H](N2CCCC2=O)[C@H]1O [(-)-CROMAKALIM]
group: NO

compound: Cc1ccc(OCc2ccccc2)c(C(C)NC(=O)NS(=O)(=O)c2ccc(Cl)cc2)c1 (racemic)
group: NO

compound: COc1ccc(CCN(C)CCCC(C#N)(c2ccc(OC)c(OC)c2)C(C)C)cc1OC (stereo not given)
group: YES

Lookup: Bench note: check whether CC(NC(=O)NS(=O)(=O)c1ccc(Cl)cc1)c1cc(Br)ccc1OCc1ccccc1 (racemic) shows EC50 below 5 µM
Found: NO
